Test: Water solubility by the gravimetric method
Assay type: physicochemical
Conditions: thermodynamic from solid, 25 °C
property label: solubility at 2 h

Name the recorded solubility at 2 h for CCN1CCN(c2cc3c(cc2F)c(=O)c(C(=O)O)cn3C2CC2)CC1 [EFX, reference compound] .
176 µg/mL

###

MIC (minimal inhibitory concentration) overview
System: Staphylococcus aureus ATCC 6358
Experiment: Broth microdilution antibacterial activity (MIC/MBC), CLSI M07
Format: cell-based
Conditions: Mueller-Hinton medium, 24 h at 37 °C
Provide the reading as a plain figure in µg/mL.

Reference set, count: 3
CCN1CCN(c2cc3c(cc2F)c(=O)c(C(=O)O)cn3C2CC2)CC1.O.O=C(O)c1cccc(C(=O)O)n1 [EFX·Py2,6DCA·H2O] : 0.25
CCN1CCN(c2cc3c(cc2F)c(=O)c(C(=O)O)cn3C2CC2)CC1.O=C(O)c1ccnc(C(=O)O)c1 [EFX·Py2,4DCA] : 0.25
CCN1CCN(c2cc3c(cc2F)c(=O)c(C(=O)O)cn3C2CC2)CC1.O.O=C(O)c1ccc(C(=O)O)nc1 [EFX·Py2,5DCA·H2O] : 0.25

Proceed to the following item.
Name the recorded MIC (minimal inhibitory concentration) for CCN1CCN(c2cc3c(cc2F)c(=O)c(C(=O)O)cn3C2CC2)CC1.O=C(O)c1cccnc1C(=O)O [EFX·Py2,3DCA] .
0.25
